Collected inhibition at 2 µM values appear next to each entry.
Molecular target: human Cereblon WT GST-tagged protein (Homo sapiens, UniProt Q96SW2)
Construct: purchased CISBIO 64BDCRBNPEH
Sequence (Q96SW2 whole entry): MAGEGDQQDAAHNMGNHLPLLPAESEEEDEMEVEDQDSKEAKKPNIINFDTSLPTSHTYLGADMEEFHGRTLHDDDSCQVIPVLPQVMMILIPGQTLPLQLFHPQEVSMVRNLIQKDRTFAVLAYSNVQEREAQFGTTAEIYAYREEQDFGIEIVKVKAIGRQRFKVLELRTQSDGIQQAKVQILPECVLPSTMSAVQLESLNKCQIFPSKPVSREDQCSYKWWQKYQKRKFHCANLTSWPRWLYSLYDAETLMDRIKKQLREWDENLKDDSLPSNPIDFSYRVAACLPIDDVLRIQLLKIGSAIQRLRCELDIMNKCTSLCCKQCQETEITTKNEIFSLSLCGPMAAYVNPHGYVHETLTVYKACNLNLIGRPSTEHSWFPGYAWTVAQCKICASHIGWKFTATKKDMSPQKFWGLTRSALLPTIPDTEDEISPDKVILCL
Assay: CRBN-binding affinity, HTRF (CEREBLON BINDING kit)
Conditions: read-out: Inhibition Rate at 2 µM (%)

{"compound": "O=C1CCC(N2Cc3cc(CN4CCC(c5cccs5)CC4)ccc3C2=S)C(=O)N1 (stereo not shown)", "quantity": "inhibition at 2 µM", "testResult": "80 to 100%"}
{"compound": "O=C1CCC(N2Cc3cc(CN4CCN(c5ccc(F)cc5)CC4)ccc3C2=S)C(=O)N1 (stereo not shown)", "quantity": "inhibition at 2 µM", "testResult": "80 to 100%"}
{"compound": "Cc1csc2ncnc(N3CCN(Cc4cccc5c4CN(C4CCC(=O)NC4=O)C5=S)CC3)c12 (stereo not shown)", "quantity": "inhibition at 2 µM", "testResult": "80 to 100%"}

**Query** What value of measured inhibition at 2 µM is listed for O=C1CCC(N2Cc3c(CN4CCC(N(c5ccccc5)c5ccccn5)CC4)cccc3C2=S)C(=O)N1 (stereo not shown) ?
**Result** 60 to 80%
